Measured Property: melting point

| Compound | melting point |
| --- | --- |
| COc1cc2c(cc1OC)C(c1ccccc1)=NN(C1=NOCS1)C(C)C2 (centres unmarked) | 170 to 173 °C |
| COc1cc2c(cc1OC)C(c1ccc(N)c(C)c1)=NN(c1nncs1)C(C)C2 (racemic) | 108 to 110 °C |
| CNC(=O)N1N=C(c2cccc([N+](=O)[O-])c2)c2cc(OC)c(OC)cc2CC1C (centres unmarked) | 83 to 85 °C |
| COc1cc2c(cc1OC)C(c1ccc(N)cc1)=NN(c1nncs1)[C@H](C)C2 | 159 to 160 °C |
| COc1cc2c(cc1OC)C(c1ccc(N)cc1)=NN(c1ncon1)[C@H](C)C2 | 239 to 242 °C |

// for each compound below, give its melting point
1. COc1cc2c(cc1OC)C(c1ccc(N)cc1)=NN(C(=O)NC(C)C)C(C)C2 (racemic)
2. COc1cc2c(cc1OC)C(c1ccc(N)cc1)=NN(C(=O)NC1CC1)C(C)C2 (racemic)
3. COc1cc2c(cc1OC)C(c1ccc(N)cc1)=NN(c1nc(=O)n(C)s1)C(C)C2 (racemic)
4. COc1cc2c(cc1OC)C(c1ccc([N+](=O)[O-])cc1)=NN(c1ncon1)C(C)C2 (centres unmarked) [Example 41]
5. CNC(=O)N1N=C(c2ccccc2)c2cc(OC)c(OC)cc2CC1C (centres unmarked)

[out]
1. 109 to 111 °C
2. 120 to 123 °C
3. 260 to 262 °C
4. 190 to 192 °C
5. 86 to 88 °C

// for each compound below, give its melting point
1. COc1cc2c(cc1OC)C(c1ccc(N)c(C)c1)=NN(c1ncon1)[C@@H](C)C2
2. COc1cc2c(cc1OC)C(c1ccc(N)cc1)=NN(c1nc(C)nn1C)C(C)C2 (racemic)
3. COc1cc2c(cc1OC)C(c1ccc(N)cc1)=NN(C(=O)N1CCCCC1)C(C)C2 (racemic)
4. CNC(=O)N1N=C(c2ccc([N+](=O)[O-])c(Cl)c2)c2cc(OC)c(OC)cc2CC1C (centres unmarked) [76]
5. COc1cc2c(cc1OC)C(c1ccc(N)c(Cl)c1)=NN(c1nncs1)[C@H](C)C2
6. CCNC(=O)N1N=C(c2ccc(N)c(C)c2)c2cc(OC)c(OC)cc2C[C@H]1C

[out]
1: 136 to 138 °C; 2: 113 to 115 °C; 3: 129 to 132 °C; 4: 195 to 197 °C; 5: 129 to 134 °C; 6: 107 to 110 °C

[in] Consider the compound CNC(=O)N1N=C(c2ccc(OC)c(OC)c2)c2cc(OC)c(OC)cc2CC1C (centres unmarked) and give its measured melting point.
[out] 185 to 186 °C
